Documented αs1-I CN, 24 hours, 11° C. across a set of proteins
Biological target: T1, alpha-s1 casein from Bos taurus
T1 chain: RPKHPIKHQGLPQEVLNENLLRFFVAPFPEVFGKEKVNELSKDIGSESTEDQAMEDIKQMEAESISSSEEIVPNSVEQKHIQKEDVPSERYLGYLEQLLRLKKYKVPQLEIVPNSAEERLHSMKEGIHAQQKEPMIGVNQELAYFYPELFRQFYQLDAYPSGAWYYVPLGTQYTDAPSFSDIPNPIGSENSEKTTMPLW

| protein | reported |
| --- | --- |
| camel chymosin variant #158 (L295F) (protein) GKVAREPLTSYLDSQYFGKIYIGTPPQEFTVVFDTGSSDLWVPSIYCKSNVCKNHHRFDPRKSSTFRNLGKPLSIHYGTGSMEGFLGYDTVTVSNIVDPNQTVGLSTEQPGEVFTYSEFDGILGLAYPSLASEYSVPVFDNMMDRHLVARDLFSVYMDRNGQGSMLTLGAIDPSYYTGSLHWVPVTLQQYWQFTVDSVTINGVAVACVGGCQAILDTGTSVLFGPSSDILKIQMAIGATENRYGEFDVNCGNLRSMPTVVFEINGRDYPLSPSAYTSKDQGFCTSGFQGDNNSEFWILGDVFIREYYSVFDRANNRVGLAKAI | 2.22e+07 Volume |
| Chymax M (recombinant camel chymosin) (protein) GKVAREPLTSYLDSQYFGKIYIGTPPQEFTVVFDTGSSDLWVPSIYCKSNVCKNHHRFDPRKSSTFRNLGKPLSIHYGTGSMEGFLGYDTVTVSNIVDPNQTVGLSTEQPGEVFTYSEFDGILGLAYPSLASEYSVPVFDNMMDRHLVARDLFSVYMDRNGQGSMLTLGAIDPSYYTGSLHWVPVTLQQYWQFTVDSVTINGVAVACVGGCQAILDTGTSVLFGPSSDILKIQMAIGATENRYGEFDVNCGNLRSMPTVVFEINGRDYPLSPSAYTSKDQGFCTSGFQGDNNSELWILGDVFIREYYSVFDRANNRVGLAKAI | 1.62e+07 Volume |
| camel chymosin variant #143 (F223V) (protein) GKVAREPLTSYLDSQYFGKIYIGTPPQEFTVVFDTGSSDLWVPSIYCKSNVCKNHHRFDPRKSSTFRNLGKPLSIHYGTGSMEGFLGYDTVTVSNIVDPNQTVGLSTEQPGEVFTYSEFDGILGLAYPSLASEYSVPVFDNMMDRHLVARDLFSVYMDRNGQGSMLTLGAIDPSYYTGSLHWVPVTLQQYWQFTVDSVTINGVAVACVGGCQAILDTGTSVLVGPSSDILKIQMAIGATENRYGEFDVNCGNLRSMPTVVFEINGRDYPLSPSAYTSKDQGFCTSGFQGDNNSELWILGDVFIREYYSVFDRANNRVGLAKAI | 1e+07 Volume |

-- ask For camel chymosin variant #141 (F223N) (protein) GKVAREPLTSYLDSQYFGKIYIGTPPQEFTVVFDTGSSDLWVPSIYCKSNVCKNHHRFDPRKSSTFRNLGKPLSIHYGTGSMEGFLGYDTVTVSNIVDPNQTVGLSTEQPGEVFTYSEFDGILGLAYPSLASEYSVPVFDNMMDRHLVARDLFSVYMDRNGQGSMLTLGAIDPSYYTGSLHWVPVTLQQYWQFTVDSVTINGVAVACVGGCQAILDTGTSVLNGPSSDILKIQMAIGATENRYGEFDVNCGNLRSMPTVVFEINGRDYPLSPSAYTSKDQGFCTSGFQGDNNSELWILGDVFIREYYSVFDRANNRVGLAKAI , what is its reported αs1-I CN, 24 hours, 11° C.?
-- reply 2.49e+07 Volume
